The reported numbers originate from the supplement of paper PMC7877785.

Assignment: determine reported self-splicing fitness (ln) for the given sequences.
# EXPERIMENT DESCRIPTION: self-splicing fitness, log relative to wild type (ln ratio); higher = more splicing; Tetrahymena group I intron in knt gene, E. coli kanamycin selection, DiMSum; sequences stand for … in CUCUCU…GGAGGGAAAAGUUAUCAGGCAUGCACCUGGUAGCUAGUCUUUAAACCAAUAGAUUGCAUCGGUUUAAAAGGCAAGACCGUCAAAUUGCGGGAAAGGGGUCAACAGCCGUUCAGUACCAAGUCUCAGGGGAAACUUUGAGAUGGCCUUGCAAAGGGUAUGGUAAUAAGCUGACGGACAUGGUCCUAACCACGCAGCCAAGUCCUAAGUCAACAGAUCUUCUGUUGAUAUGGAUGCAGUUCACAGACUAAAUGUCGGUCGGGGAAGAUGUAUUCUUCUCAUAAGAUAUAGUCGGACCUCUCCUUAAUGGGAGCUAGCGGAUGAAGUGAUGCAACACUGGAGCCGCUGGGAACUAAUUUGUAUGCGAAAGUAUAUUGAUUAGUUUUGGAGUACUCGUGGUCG;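 further: selection with 25 µg/mL kanamycin versus none on LB agar overnight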
# CONDITION: 30 °C

q: Report self-splicing fitness (ln) for GAUUAGCAAUAUUACGCUCG please.
a: -1.11

q: Could you tell me which self-splicing fitness (ln) is on file for CGAUAGCAAUAUUACGAUCG ?
a: -2.55

q: Name the recorded self-splicing fitness (ln) for UCUGAGCAAUAUUACGCGCA .
a: -2.16

q: Give its self-splicing fitness (ln) value. Item: CACAAGCAAUAUUACGGGGC
a: -3.54

q: Please give the measured self-splicing fitness (ln) for this sequence: UGACAGCAAUAUUACGCCGC
a: -1.26

q: self-splicing fitness (ln) lookup needed for GAUGAGCAAUAUUACGGAUU , thanks.
a: -3.44

q: Item under review: AGCAAGCAAUAUUACGCACU . Reported self-splicing fitness (ln)?
a: -1.89

q: Entry under review: GGCAAGCAAUAUUACGAUAU . Reported self-splicing fitness (ln)?
a: -1.29

q: Please report the recorded self-splicing fitness (ln) for GCUUAGCAAUAUUACGGGUG .
a: -0.826

q: Data request, read-out self-splicing fitness (ln), for UUAUAGCAAUAUUACGAUGG
a: -1.24

q: Any idea what its self-splicing fitness (ln) is? The sequence is GAAUAGCAAUAUUACGUUGG
a: -3.3

q: Any idea what its self-splicing fitness (ln) is? The sequence is CAACAGCAAUAUUACGGUAG
a: -0.633

q: Item under review: GUUAAGCAAUAUUACGCUUA . Reported self-splicing fitness (ln)?
a: -3.09

q: Record request: self-splicing fitness (ln) value, item GGGUAGCAAUAUUACGCUUA
a: -0.435

q: // self-splicing fitness (ln) lookup, key: GAGGAGCAAUAUUACGGCGG
a: -2.33

q: Reported self-splicing fitness (ln), sequence CAUUAGCAAUAUUACGGCAG : ____
a: -0.186

q: Which self-splicing fitness (ln) is listed for CCUAAGCAAUAUUACGUUGC ?
a: -3.6

q: I'd like to know its self-splicing fitness (ln). The sequence in question is CGGAAGCAAUAUUACGAAUU
a: -3.28

q: I have this sequence here, UGGAAGCAAUAUUACGUCGC , and I need its recorded self-splicing fitness (ln).
a: -3.16

q: Requested field: self-splicing fitness (ln). Item: UAUCAGCAAUAUUACGCGUC
a: -2.53

q: Please report the recorded self-splicing fitness (ln) for GUCUAGCAAUAUUACGGAUU .
a: -1.75

q: Look up self-splicing fitness (ln): UACCAGCAAUAUUACGCCGA
a: -1.45

q: Could you share which self-splicing fitness (ln) value was measured for AUUGAGCAAUAUUACGGUGU ?
a: -1.92

q: Any idea what its self-splicing fitness (ln) is? The sequence is GUAGAGCAAUAUUACGAGGG
a: -3.25

q: Could you tell me which self-splicing fitness (ln) is on file for AGAGAGCAAUAUUACGGAAU ?
a: -3.36
